Assay: NCI Yeast Anticancer Drug Screen. Data for the cln2 rad14 strain (AID 165);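 further: 0% = growth equal to vehicle treated cultures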
Conditions: S. cerevisiae cln2 rad14 strain, stronger effect = higher value; at 50.0 µM unless noted
About 79,000 compounds went through this panel and 15% of them were active in at least one assay; those are over-represented in the sample as a whole.
recorded_metric: growth inhibition (%)
Could you give me the number in %? Just the number is fine.

The examples below pair each entry with its known result.
C(=N\N1CN(/N=C/c2ccccc2)C(c2ccccc2)C1c1ccccc1)/c1ccccc1 (centres undefined) :: 7.35
O=c1c2cc(O)c(O)cc2oc2cc(O)c(C3OC(CO)C(O)C(O)C3O)c(O)c12 (centres undefined) :: 6.45
CSC(=S)N/N=C(\C)c1cccs1 :: -50.9

Q: So what does the record say about growth inhibition for `O=C(c1ccccc1)c1cccc(C(=O)c2ccccc2)c1` ?
Ans: 4.65

Q: Next record, please: `O=C(NCN1CCOCC1)NC(=O)NCN1CCOCC1`
Ans: -3.9

Q: Next record, please: CCCC(=O)OC1CC(n2cc(F)c(=O)[nH]c2=O)OC1CO (centres undefined)
Ans: 2.55

Q: Next record, please: O=C(/C(=C/c1ccccc1)c1ccccc1)N1c2ccccc2CC1c1c[nH]c2ccccc12 (centres undefined)
Ans: 19.1

Q: Next record, please: CC1CC(=O)c2c(ccc3c2C(=O)c2cccc(O)c2C3=O)C1 (centres undefined)
Ans: 24.8

Q: Next record, please: `CCCCCCCCCOc1ccc(C=Nc2ccc(C)cc2)cc1`
Ans: -18.9

Q: Next record, please: `O=C(O)CCC(=O)c1ccc(F)cc1`
Ans: -0.95

Q: Next record, please: `Cc1cc2nncn2c2ccccc12`
Ans: -12.3

Q: Next record, please: `CN(C)c1nc(N(C)C)nc(N(C)CN(C)c2ccc(Cl)cc2)n1`
Ans: -11.3

Q: Next record, please: `O=C(Nc1ccc(Cl)cc1)Nc1nnc(-c2cccc(Cl)c2)o1`
Ans: -51.9

Q: Next record, please: `O=C(Oc1cc2c(cc1Br)OCO2)c1cccc2ccccc12`
Ans: -48.7

Q: Next record, please: `C=CCCC(=O)CC(=O)OCc1ccccc1`
Ans: 8.05

Q: Next record, please: `CC1(C)CC[C@]2(C(=O)O)CC[C@]3(C)C(=CC[C@@H]4[C@@]5(C)CC[C@H](O)C(C)(C)[C@@H]5CC[C@]43C)[C@@H]2C1`
Ans: 13.2

Q: Next record, please: `Cn1c2ccccc2c2nnc(NCCCO)nc21`
Ans: 43.3

Q: Next record, please: `COc1ccccc1OC(=O)c1ccc(Cl)cc1`
Ans: -63.9

Q: Next record, please: CC(=O)OCC1OC(n2c(Br)nc3c(=O)[nH]c(N)nc32)C(OC(C)=O)C1OC(C)=O (centres undefined)
Ans: -14.8

Q: Next record, please: Cc1ccc(S(=O)(=O)N/N=C(\c2nc3ccc(Cl)cc3[nH]c2=O)C(O)c2cccc([N+](=O)[O-])c2)cc1 (centres undefined)
Ans: 11.7

Q: Next record, please: `O=C(Cc1ccccc1)NCc1ccco1`
Ans: -10.9

Q: Next record, please: CC1CCC2COC(=O)CCC2(C)C1C (centres undefined)
Ans: -40.9

Q: Next record, please: `COc1cc(CC(=O)O)ccc1OC(C)=O`
Ans: -25.1

Q: Next record, please: `CCN(CC)CCCCCCNc1cc(OC)c(OC)c2c(C)ccnc12`
Ans: -14.4
